The reported measurements were obtained from paper PMC6325109.

TARGET OR TEST SYSTEM: MBP-STAT5b-SH2 (Homo sapiens, UniProt P51692, N642A)
METHOD: fluorescence polarization competition with peptide […]
MEASUREMENT CONTEXT: […] MOPS pH […], room temperature; competitive
RECORDED METRIC: pIC50
Notebook: values listed as pIC50 are -log10 of the concentration (mol/L).

Problem: May I ask what pIC50 has been recorded for O=C(O)c1nonc1NCn1cnnn1 [compound 10] ?
Result: 4.52

---

TARGET OR TEST SYSTEM: UniProt:P51692
Sequence (P51692 589-686 limits assumed): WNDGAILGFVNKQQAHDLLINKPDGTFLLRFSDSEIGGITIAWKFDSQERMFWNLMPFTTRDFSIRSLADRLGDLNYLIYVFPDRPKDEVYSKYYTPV
METHOD: fluorescence polarization competition with peptide […]
Format: binding
MEASUREMENT CONTEXT: […] MOPS pH […], room temperature; competitive
RECORDED METRIC: pKi
Note on pKi: it is the negative log10 of concentration, concentration in mol/L.

COMPOUND: O=C(O)c1nonc1NCn1cccn1 [compound 8, pyrazol-1-yl 8]
pKi: 3.92

COMPOUND: O=C(O)c1nonc1NCn1nnnc1-c1cccc(F)c1 [compound 13, 5-(3-fluorophenyl) 13]
pKi: 6.22

COMPOUND: O=C(O)c1nonc1NCn1nnnc1-c1cccc(C(F)(F)F)c1 [compound 12, 5-(3-trifluoromethyl-phenyl)-12]
pKi: 6.05

The record that follows has no pKi shown yet.
Problem: Dear colleague, I am looking for the recorded pKi of the following compound: O=C(O)c1nonc1NCn1nnnc1-c1ccccc1 [compound 11]
Result: 5.85
